Values compiled from patent US4161523A.

# protocol_description: Acute toxicity in mice
# Set-up: species or system male CF-1 (Carworth Farms) mice
# condition_parameters: mouse, in vivo, sc; Subcutaneous
observable: LD50 (mg/kg)
Please reply with the bare figure in mg/kg and do not write the unit itself.

Query: // query LD50 value for entry CCC1OC(=O)CC(O)C(C)C(OC2OC(C)CC(N(C)C)C2O)C(CC=O)CC(C)C(=O)C=CC2(C)OC2C1C (stereo not shown) [Antibiotic 67-694]
Response: 625

----------
# protocol_description: Acute toxicity in mice
# Parameters: species or system male CF-1 (Carworth Farms) mice
# condition_parameters: mouse, in vivo; Intravenous
observable: LD50 (mg/kg)
Please reply with the bare figure in mg/kg and do not write the unit itself.

Query: // query LD50 value for entry CCC1OC(=O)CC(O)C(C)C(OC2OC(C)CC(N(C)C)C2O)C(CC=O)CC(C)C(=O)C=CC2(C)OC2C1C (stereo not shown) [Antibiotic 67-694]
Response: 155
